Tested on: PANC-1. epithelioid carcinoma of the pancreas cell line bearing KRas^G12D oncogenic mutation
Experiment: Antiproliferative MTS assay, PANC-1 cells
Format: cell-based
Conditions: Homo sapiens, PANC-1, 72 h, compounds 1-23 and 47-52 median of experiments, 24-46 estimations and/or preliminary results, read-out: IC50 values: cell proliferation inhibition, Panc-1
property measured: IC50 (nM)

Examples with answers:
[[record]]
compound = "COc1ccc(CCOc2cc3c(cc2OC)CCN(C(=O)NCc2ccon2)C3c2ccc(C)cc2C)cc1N (centres unmarked)"
reported_measurement = 300

[[record]]
compound = "COc1cc(CCOc2cc3c(cc2OC)CCN(C(=O)NCC(F)(F)F)C3c2ccc(C(F)(F)F)cc2C)ccc1N (centres unmarked)"
reported_measurement = 500


(1) COc1ccc(CCOc2cc3c(cc2OC)CCN(C(=O)NCc2cocn2)C3c2ccc(C)cc2C)cc1N (centres unmarked)
(2) COc1ccc(C2c3cc(OCCc4ccc(OC)c(N)c4)c(OC)cc3CCN2C(=O)NCc2cocn2)c(C)c1 (centres unmarked)
(3) COc1cc(CCOc2cc3c(cc2OC)CCN(C(=O)NCc2cocn2)C3c2ccc(F)cc2C)ccc1N (centres unmarked)
Could you please order the items by IC50, going from the lowest number to the highest? As an answer, provide the labels arranged in the order called for.
2, 1, 3
